Where these numbers come from: patent US11891401B2

Assay: Solubility in various media at 25° C. after 24 hours equilibration (UPLC)
Type: physicochemical
Details: phosphate buffer pH 6.8; after 24 hours equilibration
Parameter: final pH of the sample (in parentheses)

Cc1nc(C)c(C(=O)Nc2ccc(F)c(-c3nc4ncc(-c5ncccc5C)cn4n3)c2)o1 [Amorphous Compound I Fumaric Acid (1:1)] : (6.6)
Cc1nc(C)c(C(=O)Nc2ccc(F)c(-c3nc4ncc(-c5ncccc5C)cn4n3)c2)o1 [Form C] : (6.4)
Cc1nc(C)c(C(=O)Nc2ccc(F)c(-c3nc4ncc(-c5ncccc5C)cn4n3)c2)o1 [Amorphous Compound I Fumaric Acid (2:1)] : (6.7)
Cc1nc(C)c(C(=O)Nc2ccc(F)c(-c3nc4ncc(-c5ncccc5C)cn4n3)c2)o1 [Free Form] : 6.65
Cc1nc(C)c(C(=O)Nc2ccc(F)c(-c3nc4ncc(-c5ncccc5C)cn4n3)c2)o1 [Compound I Fumaric Acid Co-crystal (2:1)] : (6.6)

molecule Cc1nc(C)c(C(=O)Nc2ccc(F)c(-c3nc4ncc(-c5ncccc5C)cn4n3)c2)o1 [Form B] , final pH of the sample (in parentheses) observed: (6.5)

###

Experiment: Solubility in various media at 25° C. after 24 hours equilibration (UPLC)
Type: physicochemical
Details: SGF pH 2.0; 25° C., 24 hours equilibration
Parameter: solubility (µg/mL)

Cc1nc(C)c(C(=O)Nc2ccc(F)c(-c3nc4ncc(-c5ncccc5C)cn4n3)c2)o1 [Form B] : 63

(a) Cc1nc(C)c(C(=O)Nc2ccc(F)c(-c3nc4ncc(-c5ncccc5C)cn4n3)c2)o1 [Compound I Fumaric Acid Co-crystal (2:1)]
(b) Cc1nc(C)c(C(=O)Nc2ccc(F)c(-c3nc4ncc(-c5ncccc5C)cn4n3)c2)o1 [Form C]
Request: In the pair a and b , the larger recorded solubility belongs to which? Please identify the chosen entry by its label.
Result: b

(a) Cc1nc(C)c(C(=O)Nc2ccc(F)c(-c3nc4ncc(-c5ncccc5C)cn4n3)c2)o1 [Free Form]
(b) Cc1nc(C)c(C(=O)Nc2ccc(F)c(-c3nc4ncc(-c5ncccc5C)cn4n3)c2)o1 [Amorphous Compound I Fumaric Acid (1:1)]
Request: Please let me know which one, a or b , has a lower measured solubility value. Returns: label corresponding to the selected item.
Result: a
(a: 29 µg/mL, b: 55 µg/mL)

###

Assay: Solubility in various media at 25° C. after 24 hours equilibration (UPLC)
Format: physicochemical
Conditions: 0.1N HCl pH 1.0; 25° C., 24 hours equilibration
Parameter: solubility (µg/mL)

(1) Cc1nc(C)c(C(=O)Nc2ccc(F)c(-c3nc4ncc(-c5ncccc5C)cn4n3)c2)o1 [Amorphous Compound I Fumaric Acid (2:1)]
(2) Cc1nc(C)c(C(=O)Nc2ccc(F)c(-c3nc4ncc(-c5ncccc5C)cn4n3)c2)o1 [Amorphous Compound I Fumaric Acid (1:1)]
Request: Smaller solubility value, 1 vs 2 ? Response format: the label of the selected entry.
Result: 1

(1) Cc1nc(C)c(C(=O)Nc2ccc(F)c(-c3nc4ncc(-c5ncccc5C)cn4n3)c2)o1 [Compound I Fumaric Acid Co-crystal (2:1)]
(2) Cc1nc(C)c(C(=O)Nc2ccc(F)c(-c3nc4ncc(-c5ncccc5C)cn4n3)c2)o1 [Form C]
Request: From the recorded data, which exceeds the other in solubility: 1 or 2 ? Indicate which entry you chose by stating its label.
Result: 2
(2: 240 µg/mL, 1: 160 µg/mL)
